- experimental protocol: Drug loading efficiency, drug loading content and aqueous solubility of PEG-b-PLA micelles by RP-HPLC
- Type: physicochemical
- condition details: PEG-b-PLA micelles, aqueous with cosolvent or surfactant or cyclodextrin, Table 1B; PEG-b-PLA micelles; drug to polymer ratio 1:5; read-out: Apparent solubility
parameter measured: solubility (mg/mL)
Return type: number; implicit unit mg/mL.

QUERY: Please look up its solubility: CO[C@H]1C[C@@H]2CC[C@@H](C)[C@@](O)(O2)C(=O)C(=O)N2CCCC[C@H]2C(=O)O[C@H]([C@H](C)C[C@@H]2CC[C@@H](O)[C@H](OC)C2)CC(=O)[C@H](C)/C=C(\C)[C@@H](O)[C@@H](OC)C(=O)[C@H](C)C[C@H](C)/C=C/C=C/C=C/1C
RESULT: 0.9

###

- experimental protocol: Drug loading efficiency, drug loading content and aqueous solubility of PEG-b-PLA micelles by RP-HPLC
- Format: physicochemical
- condition details: aqueous with cosolvent or surfactant or cyclodextrin; Table 1C; PEG-b-PLA micelles; drug to polymer ratio 1:5; read-out: Apparent solubility
- Protocol: The polymeric film was dissolved by addition of sterile water or PBS (10 mM, pH 7.4), followed by centrifugation for 5 min at 13,000 rpm and sterile filtration (0.22 μm (Coring, N.Y.)).
parameter measured: solubility (µg/mL)
Numeric answer only, unit µg/mL assumed.

QUERY: Which measured solubility value corresponds to Cn1cnc2c(F)c(Nc3ccc(Br)cc3Cl)c(C(=O)NOCCO)cc21 ?
RESULT: 100

###

- experimental protocol: Drug loading efficiency, drug loading content and aqueous solubility of PEG-b-PLA micelles by RP-HPLC
- Format: physicochemical
- condition details: water, PTX without PEG-b-PLA micelles; read-out: water solubility
- Description: The polymeric film was dissolved by addition of sterile water or PBS (10 mM, pH 7.4), followed by centrifugation for 5 min at 13,000 rpm and sterile filtration (0.22 μm (Coring, N.Y.)).
parameter measured: solubility

QUERY: Return reported solubility; argument: CC(=O)O[C@H]1C(=O)[C@@]2(C)[C@H]([C@H](OC(=O)c3ccccc3)[C@]3(O)C[C@H](OC(=O)[C@H](O)[C@@H](NC(=O)c4ccccc4)c4ccccc4)C(C)=C1C3(C)C)[C@]1(OC(C)=O)CO[C@@H]1C[C@@H]2O [PTX, paclitaxel]
RESULT: ~10 µg/mL
